- test-details: Primary qHTS for delayed death inhibitors of the malarial parasite plastid, 48 hour incubation
- conditions-used: P. falciparum luciferase growth in erythrocytes; series mostly up to 28.7 µM
Screen size: about 310,000 compounds; about 18,000 (5.8%) were called active. Inconclusive results (about 22%) are left out. Calls come from the whole dose curve; as a rule, active = well fitted inhibition curve with a large enough effect; inconclusive = small, poorly fitted or top-dose-only effect, or another doubt; inactive = no such curve, though single readings can be large or run the other way. Shown is part of a subset that was picked to be rich in actives.
Please answer using one outcome listed in 1 (yes) (active), 0 (no) (inactive)

Observe how each entry below is paired with its result.
| compound | assigned-class |
| --- | --- |
| CCOC(=O)c1c(C)[nH]c(C(=O)OCC(=O)c2ccc(OC)cc2OC)c1C | 0 (no) |
| CC(CC(=O)Nc1cc(C(F)(F)F)ccc1Cl)c1ccccc1 (stereo unspecified) | 0 (no) |
| COc1cc(NC(=O)c2ccccc2)c(OC)cc1NC(=O)Cc1ccccc1 | 0 (no) |
| COc1ccc(Cl)cc1-n1c(C)cc(C(=O)OCC(=O)N2CC(=O)Nc3ccccc32)c1C | 1 (yes) |
| Cc1cc(CN(C)C(=O)c2cc(COc3ccc(C)c(C)c3)on2)n[nH]1 | 0 (no) |

Exercise: Dear all, I need the recorded test outcome for `Cc1cc(C(F)F)nn1CC(=O)NC1CCCCCC1` , thank you.
Solution: 0 (no)
